Readings of fraction ligated for the listed variants
B1: F1*; the commonest letter at each place (parent)
chain: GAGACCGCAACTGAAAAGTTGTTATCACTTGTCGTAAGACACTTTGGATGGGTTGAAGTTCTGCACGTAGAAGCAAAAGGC

- Variants of: B1
- test: fraction ligated after 30 min (ligated reads / total reads); higher = more ligase activity
- assayContext: with F1*sub RNA substrate (template-directed ligation), 42 °C
Reply: number alone, nothing else.

As a guide, the following entries are already answered.
T35A G38A	0.863
T32G A37G	0.842
T25C C26G	0.0807
C42A A57T	0.848
T23C C42G	0.761

fraction ligated lookup needed for T25C T30G , thanks.
0.162

I'd like to know its fraction ligated. The variant in question is A36G A41C
0.795

Which fraction ligated is listed for T43A G47T ?
0.643
